TARGET DESC: Ribosomal protein S6 kinase alpha-6 (Homo sapiens)
TEST CONDITIONS: at 1 µM
# label = 1.0 if residual activity < 70% else 0.0

Problem: For the compound "CC#CC(=O)Nc1cc2c(Nc3ccc(F)c(Cl)c3)ncnc2cn1" , is residual activity under 70%?
0.0

Decide: residual activity of "O=C(Nc1cccc(Nc2cc(Nc3cccc(C(F)(F)F)c3)ncn2)c1)C1CC1" strictly below 70%?
0.0

I'd appreciate it if you could check whether "CN(C)CCCn1cc(C2=C(c3c[nH]c4ccccc34)C(=O)NC2=O)c2ccccc21" has residual activity smaller than 70%.
1.0

Criterion: residual activity strictly below 70%. Is it met by "N#CCCc1ccc2c(c1)-c1[nH]c3ccc([N+](=O)[O-])cc3c1CC(=O)N2" ?
1.0

Determine whether this compound shows residual activity lower than 70% (ties excluded): "CC(=O)O/N=C1\C(=C2\C(=O)Nc3cc(Br)ccc32)Nc2ccccc21"
0.0

---

TARGET DESC: Serine/threonine-protein kinase WNK2 (Homo sapiens);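 also: residual WNK2 kinase activity expressed as percent of uninhibited control, assayed in MOPS buffer at pH 7.0 containing EDTA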
TEST CONDITIONS: at 1 µM
Description: Millipore: Percentage of residual kinase activity of WNK2 at 1uM relative to control. Control inhibitor: Phosphoric acid* at 0.3uM. Buffer: 8 mM MOPS pH 7.0, 0.2 mM EDTA
MEASUREMENT TYPE: residual activity (%)
Your answer is read as %, so omit the unit and give the number.

Find the recorded residual activity belonging to "Cc1nc2cc3nc(-c4cccs4)cnc3cc2n1C" and report it.
117

Which residual activity value belongs to "Oc1ccc(Nc2nc(-c3ccc(Cl)cc3)cs2)cc1" ?
117

What does the data say about its residual activity? Entry: "COc1ccc(CNc2nc(N(CCO)CCO)nc3c2ncn3C(C)C)cc1"
88

Please look up its residual activity: "Oc1n[nH]c2nnc(-c3c(-c4ccccc4)nn4ccccc34)cc12"
93

Requested field: residual activity. Item: "c1ccc(-c2n[nH]c3c2oc2ccccc23)cc1"
114

Given the compound "COc1cc2ncnc(N3CCN(C(=O)Nc4ccc(Oc5ccccc5)cc4)CC3)c2cc1OC" , what is its reported residual activity?
84

Which residual activity value belongs to "CCC(=O)Nc1ccc2ncnc(Nc3cccc(Br)c3)c2c1" ?
99

Using the record for "Cc1ccc(NC2=CC(=O)c3sc(C)nc3C2=O)cc1" , report its residual activity.
88

Value lookup for residual activity; key = "Cn1nc2c3c(cccc31)C(=O)c1ccccc1-2"
93

Dear colleague, I am looking for the recorded residual activity of the following compound: "COc1cc2ncnc(Nc3ccc(NC(=O)c4ccccc4)cc3)c2cc1OC"
52

Quick check: residual activity of "CN(C)c1ccc(/C=C2\C(=O)Nc3ccccc32)cc1" ?
110

I would be grateful if you could share the reported residual activity for "O=C(Nc1cccc(Nc2nccc(Nc3cccc(C(F)(F)F)c3)n2)c1)C1CC1" .
104

Item "O=C(O)c1ccc2c3c1cccc3c(=O)n1c3ccccc3nc21" has what recorded residual activity?
113

Returns the measured residual activity for the input compound. Input: "CO[C@H]1[C@@H](OC)C[C@H](C)[C@@H](OC)C2=CC(=O)C=C(NC(=O)/C(C)=C/C=C/[C@H](OC)[C@@H](OC(N)=O)/C(C)=C/[C@@H]1C)C2=O"
100

Return reported residual activity; argument: "Nc1ccc2ncnc(NCCc3ccc(Oc4ccccc4)cc3)c2c1"
110

Sample "O=C1NC(=O)/C(=C\c2ccc3nccnc3c2)S1" — what was its residual activity?
82

For "CO[C@H]1C[C@@H]2CC[C@@H](C)[C@@](O)(O2)C(=O)C(=O)N2CCCC[C@H]2C(=O)O[C@H]([C@H](C)C[C@@H]2CC[C@@H](O)[C@H](OC)C2)CC(=O)[C@H](C)/C=C(\C)[C@@H](O)[C@@H](OC)C(=O)[C@H](C)C[C@H](C)/C=C/C=C/C=C/1C" , what is its reported residual activity?
96

Look at this compound and give its reported residual activity. "COc1cc2ncnc(Nc3ccc(O)c(Br)c3)c2cc1OC"
96

Which residual activity value belongs to "CCN(CC)C(=O)c1ccc(Nc2nc(OCC3CCCCC3)c3nc[nH]c3n2)cc1" ?
96

---

TARGET DESC: RAC-gamma serine/threonine-protein kinase (Homo sapiens)
TEST CONDITIONS: at 10 µM
Decide using residual activity: a value greater than or equal to 80% is yes (1), a smaller one is no (0).

# check: residual activity of "COc1cc2ncnc(Nc3ccc(Oc4ccccc4)cc3)c2cc1OC" is greater than or equal to 80%
yes (1)

Has "CCOc1cc2ncnc(Nc3cccc(Br)c3)c2cc1OCC" a recorded residual activity greater than or equal to 80%?
yes (1)

Is the recorded value of residual activity equal to or greater than 80% for this compound? "Cc1cc(Nc2nc(-c3ccccc3)nc3ccccc23)n[nH]1"
no (0)

Does the reported residual activity for "COc1ccc(OC)c2c(=S)c3ccccc3[nH]c12" fall at or above the 80% mark?
yes (1)

Is the recorded value of residual activity equal to or greater than 80% for this compound? "C[C@@H](N)[C@H]1CC[C@H](C(=O)Nc2ccncc2)CC1"
yes (1)

Does residual activity meet or surpass 80% for "Oc1ccc(-c2nc(-c3ccc(F)cc3)c(-c3ccncc3)[nH]2)cc1" ?
no (0)

Reported residual activity at or above 80%? "Cc1nc2cc3nc(-c4cccs4)cnc3cc2n1C"
yes (1)

Does residual activity meet or surpass 80% for "Oc1c2ccccc2c2c3c(cccc13)N=N2" ?
no (0)

Please check the record "c1ccc(-c2n[nH]cc2-c2ccnc3ccccc23)nc1" and state if its residual activity is at or above 80%.
yes (1)

Does residual activity meet or surpass 80% for "CC#CC(=O)Nc1cc2c(Nc3ccc(F)c(Cl)c3)ncnc2cn1" ?
yes (1)

Dear colleague, could you confirm whether "CC[n+]1c(/C=C/N(C)c2ccccc2)n(-c2ccccc2)c2ccc(-c3nc4ccccc4s3)cc21" has residual activity at or above 80%?
no (0)

Threshold query (residual activity >= 80%) on "O=C1NC(=O)c2c1c1c3ccccc3[nH]c1c1[nH]c3cc(Br)ccc3c21"
no (0)

---

TARGET DESC: Serine/threonine-protein kinase DCLK2 (Homo sapiens) (UniProt Q8N568)
Sequence (Q8N568 whole entry): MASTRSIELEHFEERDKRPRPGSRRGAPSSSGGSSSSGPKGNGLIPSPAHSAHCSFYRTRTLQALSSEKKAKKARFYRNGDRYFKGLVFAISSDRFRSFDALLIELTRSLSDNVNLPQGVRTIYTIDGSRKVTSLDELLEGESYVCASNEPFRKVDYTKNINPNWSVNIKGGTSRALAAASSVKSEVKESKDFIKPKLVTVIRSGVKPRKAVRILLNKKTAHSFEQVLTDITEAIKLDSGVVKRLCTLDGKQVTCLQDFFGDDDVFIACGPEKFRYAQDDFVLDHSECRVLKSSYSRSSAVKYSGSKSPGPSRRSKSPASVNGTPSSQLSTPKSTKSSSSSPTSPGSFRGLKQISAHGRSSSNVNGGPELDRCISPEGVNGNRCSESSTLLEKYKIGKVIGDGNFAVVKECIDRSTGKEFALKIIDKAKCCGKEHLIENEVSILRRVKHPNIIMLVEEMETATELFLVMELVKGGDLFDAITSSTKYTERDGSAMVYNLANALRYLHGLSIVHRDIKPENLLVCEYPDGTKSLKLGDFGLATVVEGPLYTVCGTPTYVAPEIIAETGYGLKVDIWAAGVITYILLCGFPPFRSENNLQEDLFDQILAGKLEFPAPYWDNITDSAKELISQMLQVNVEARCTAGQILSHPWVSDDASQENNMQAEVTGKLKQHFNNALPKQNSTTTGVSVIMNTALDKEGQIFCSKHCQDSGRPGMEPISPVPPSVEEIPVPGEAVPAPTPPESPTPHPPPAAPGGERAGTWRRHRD
TEST CONDITIONS: at 10 µM
MEASUREMENT TYPE: residual activity (%)
Write the value in % as a bare number.

Hello, I am looking for reported residual activity with Serine/threonine-protein kinase DCLK2 (Homo sapiens) (UniProt Q8N568) for "COc1ccc(C(=O)Nc2sc3c(c2C(N)=O)CCCC3)cc1OC" . Could you help?
61

Lab note: need residual activity with Serine/threonine-protein kinase DCLK2 (Homo sapiens) (UniProt Q8N568) for entry "CC(C)n1cnc2c(NCc3ccccc3)nc(NCCCO)nc21" , please look it up.
102

Test system Serine/threonine-protein kinase DCLK2 (Homo sapiens) (UniProt Q8N568); read-out residual activity; what value for "O=[N+]([O-])c1ccc(-c2nc(-c3ccc(F)cc3)c(-c3ccncc3)[nH]2)cc1" ?
111

Notebook: pull reported residual activity for Serine/threonine-protein kinase DCLK2 (Homo sapiens) (UniProt Q8N568), entry "Cn1cnc2cc3c(Nc4cccc(Br)c4)ncnc3cc21"
110

Form: Entry = "c1ccc(-c2n[nH]cc2-c2ccnc3ccccc23)nc1" | System = Serine/threonine-protein kinase DCLK2 (Homo sapiens) (UniProt Q8N568) | residual activity = ____
101

Recall the recorded residual activity for "Nc1n[nH]c2nnc(-c3c(-c4ccccc4)nn4ccccc34)cc12" with Serine/threonine-protein kinase DCLK2 (Homo sapiens) (UniProt Q8N568) and state it.
75

What measured residual activity is associated with "CC[n+]1c(/C=C/N(C)c2ccccc2)n(-c2ccccc2)c2ccc(-c3nc4ccccc4s3)cc21" on Serine/threonine-protein kinase DCLK2 (Homo sapiens) (UniProt Q8N568)?
102

API: value(readout=residual activity, system=Serine/threonine-protein kinase DCLK2 (Homo sapiens) (UniProt Q8N568)) for record "Cc1ccc(S(=O)(=O)/C=C/C#N)cc1"
99

I'm curious: which residual activity was measured for "Oc1c2ccccc2c2c3c(cccc13)N=N2" tested on Serine/threonine-protein kinase DCLK2 (Homo sapiens) (UniProt Q8N568)?
51

API: value(readout= residual activity, system= Serine/threonine-protein kinase DCLK2 (Homo sapiens) (UniProt Q8N568), query= "COc1ccc(OC)c2c(=S)c3ccccc3[nH]c12" )
67

Serine/threonine-protein kinase DCLK2 (Homo sapiens) (UniProt Q8N568) / residual activity / "N#C/C(=C(\N)Sc1ccc(N)cc1)c1ccccc1C(F)(F)F" : value?
99

Provide value of residual activity for this record tested with Serine/threonine-protein kinase DCLK2 (Homo sapiens) (UniProt Q8N568): "Cc1cc(Nc2nc(-c3ccccc3)nc3ccccc23)n[nH]1"
69

Form: Entry = "O=c1c2ccccc2[nH]c(=S)n1CCN1CCC(=C(c2ccc(F)cc2)c2ccc(F)cc2)CC1" | System = Serine/threonine-protein kinase DCLK2 (Homo sapiens) (UniProt Q8N568) | residual activity = ____
79

For the record "O=C1NC(=O)/C(=C\c2ccc3nccnc3c2)S1" , what value of residual activity is listed for Serine/threonine-protein kinase DCLK2 (Homo sapiens) (UniProt Q8N568)?
71

Give the reported residual activity for "Cc1nc(-c2ccccc2)c(-c2ccncc2)o1" (system: Serine/threonine-protein kinase DCLK2 (Homo sapiens) (UniProt Q8N568)).
113

What measured residual activity is associated with "Nc1ccc2ncnc(NCCc3ccc(Oc4ccccc4)cc3)c2c1" on Serine/threonine-protein kinase DCLK2 (Homo sapiens) (UniProt Q8N568)?
87

Query for Serine/threonine-protein kinase DCLK2 (Homo sapiens) (UniProt Q8N568): what residual activity does the record show for "c1ccc(-c2n[nH]c3c2oc2ccccc23)cc1" ?
74

What reported residual activity corresponds to "Cc1cc2ncc(-c3ccccc3)nc2cc1C" on Serine/threonine-protein kinase DCLK2 (Homo sapiens) (UniProt Q8N568)?
67

Kindly state the measured residual activity obtained for "COc1cc2ncnc(N3CCN(C(=O)Nc4ccc(Oc5ccccc5)cc4)CC3)c2cc1OC" with Serine/threonine-protein kinase DCLK2 (Homo sapiens) (UniProt Q8N568).
242

Record "COc1ccc(S(=O)(=O)N(CCO)c2ccccc2CN(C)C/C=C/c2ccc(Cl)cc2)cc1" : what is its residual activity with Serine/threonine-protein kinase DCLK2 (Homo sapiens) (UniProt Q8N568)?
107

What is its residual activity for Serine/threonine-protein kinase DCLK2 (Homo sapiens) (UniProt Q8N568)? Entry: "O=C(Nc1cccc(Nc2cc(Nc3cccc(C(F)(F)F)c3)ncn2)c1)C1CC1"
109

Look up residual activity with Serine/threonine-protein kinase DCLK2 (Homo sapiens) (UniProt Q8N568) for this compound: "C[C@@H](N)[C@H]1CC[C@H](C(=O)Nc2ccncc2)CC1"
87

Form field: residual activity recorded for "CC(=O)c1ccc(N2CCOCC2)cc1O" with Serine/threonine-protein kinase DCLK2 (Homo sapiens) (UniProt Q8N568) (enter value)
74
